# reported TGI; entries follow
test: Antitumor activity against human renal cancer cells after 48 hrs by SRB assay; type: functional, Cancer cell lines; details: Homo sapiens, Cancer cell lines, 48 h; read-out: pTGI (converted)
Lab book: enter the figure in µM, no units written.

Consider the reported TGI for these compounds:
• Cc1ccc(-c2nc3sc(C)cn3c2/C=C2/C(=O)Nc3ccc(Cl)cc32)cc1 = 32.4
• COc1ccc2c(c1)/C(=C\c1c(-c3cc(OC)ccc3OC)nc3sc(C)cn13)C(=O)N2C = 97.7
• Cc1cn2c(/C=C3/C(=O)N(C)c4ccc(O)cc43)c(C)nc2s1 = 85.1
• Cc1cn2c(/C=C3/C(=O)N(C)c4ccc(Cl)cc43)c(C)nc2s1 = 61.7

Qu. State the recorded TGI for this entry: Cc1cn2c(/C=C3/C(=O)Nc4ccc(O)cc43)c(-c3ccc(Cl)cc3)nc2s1
Ans. 50.1
